Tested on: HEK293 human embryonic kidney cells
Experiment: Cytotoxicity assay
Format: cell-based
Settings: concentration at 50% cytotoxicity on HEK293 cells; mean (n = 2)
pIC50: −log10 of the molar value.
Observable: pIC50

compound="O=C(NCCCNCCCCNCCCNC(=O)c1ccc2ccccc2c1)c1ccc2ccccc2c1.O=C(O)C(F)(F)F.O=C(O)C(F)(F)F [Compound 19a]" observable=pIC50 recorded_number=4.58

---

Test system: human red blood cells
Experiment: Hemolytic assay
Type: cell-based
Details: concentration at 10% hemolytic activity on human red blood cells; mean (n = 2)
Observable: Hemolysis HC10

compound="O=C(NCCCNCCCCCCNCCCNC(=O)c1cccc2ccccc12)c1cccc2ccccc12.O=C(O)C(F)(F)F.O=C(O)C(F)(F)F [Compound 17b]" result=">41.7 µM"
compound="O=C(CCC(=O)Nc1ccc2ccccc2c1)NCCCNCCCCNCCCNC(=O)CCC(=O)Nc1ccc2ccccc2c1.O=C(O)C(F)(F)F.O=C(O)C(F)(F)F [Compound 20a]" result=">36.3 µM"
compound="O=C(CCC(=O)Nc1cccc2ccccc12)NCCCNCCCCCCCNCCCNC(=O)CCC(=O)Nc1cccc2ccccc12.O=C(O)C(F)(F)F.O=C(O)C(F)(F)F [Compound 18c]" result=">34.7 µM"

---

Reported Dox/P.a fold change by item:
Tested on: P. aeruginosa (ATCC 27853)
Experiment: Enhancement of doxycycline activity
Assay type: cell-based, Pseudomonas aeruginosa
Settings: ratio between intrinsic MIC of test compound and combination MIC; doxycycline 4.5 µM; P. aeruginosa
Observable: Dox/P.a fold change

compound="O=C(CCC(=O)Nc1cccc2ccccc12)NCCCNCCCCCCCNCCCNC(=O)CCC(=O)Nc1cccc2ccccc12.O=C(O)C(F)(F)F.O=C(O)C(F)(F)F [Compound 18c]" observable="Dox/P.a fold change" result="16 fold"
compound="O=C(CCC(=O)Nc1ccc2ccccc2c1)NCCCNCCCCCCCCNCCCNC(=O)CCC(=O)Nc1ccc2ccccc2c1.O=C(O)C(F)(F)F.O=C(O)C(F)(F)F [Compound 20d]" observable="Dox/P.a fold change" result="> 2 fold"
compound="O=C(CCC(=O)Nc1ccc2ccccc2c1)NCCCNCCCCCCNCCCNC(=O)CCC(=O)Nc1ccc2ccccc2c1.O=C(O)C(F)(F)F.O=C(O)C(F)(F)F [Compound 20b]" observable="Dox/P.a fold change" result="> 8 fold"
compound="O=C(NCCCNCCCCCCCCCCCCNCCCNC(=O)c1ccc2ccccc2c1)c1ccc2ccccc2c1.O=C(O)C(F)(F)F.O=C(O)C(F)(F)F [Compound 19f]" observable="Dox/P.a fold change" result="1 fold"
compound="O=C(CCC(=O)Nc1ccc(-c2ccccc2)cc1)NCCCNCCCCCCCNCCCNC(=O)CCC(=O)Nc1ccc(-c2ccccc2)cc1.O=C(O)C(F)(F)F.O=C(O)C(F)(F)F [Compound 21c]" observable="Dox/P.a fold change" result="1 fold"

---

Tested on: P. aeruginosa (ATCC 27853)
Assay: Enhancement of doxycycline activity
Format: cell-based, Pseudomonas aeruginosa
Settings: ratio between intrinsic MIC of test compound and combination MIC; doxycycline 4.5 µM; P. aeruginosa
Observable: Dox/P.a fold change (fold)

compound="O=C(CCC(=O)Nc1ccc(-c2ccccc2)cc1)NCCCNCCCCCCCCNCCCNC(=O)CCC(=O)Nc1ccc(-c2ccccc2)cc1.O=C(O)C(F)(F)F.O=C(O)C(F)(F)F [Compound 21d]" assay_target="P. aeruginosa (ATCC 27853)" observable="Dox/P.a fold change" measurement_qualifier== recorded_number=1
compound="O=C(CCC(=O)Nc1ccc(-c2ccccc2)cc1)NCCCNCCCCNCCCNC(=O)CCC(=O)Nc1ccc(-c2ccccc2)cc1.O=C(O)C(F)(F)F.O=C(O)C(F)(F)F [Compound 21a]" assay_target="P. aeruginosa (ATCC 27853)" observable="Dox/P.a fold change" measurement_qualifier== recorded_number=1
compound="O=C(CCC(=O)Nc1ccc(-c2ccccc2)cc1)NCCCNCCCCCCNCCCNC(=O)CCC(=O)Nc1ccc(-c2ccccc2)cc1.O=C(O)C(F)(F)F.O=C(O)C(F)(F)F [Compound 21b]" assay_target="P. aeruginosa (ATCC 27853)" observable="Dox/P.a fold change" measurement_qualifier== recorded_number=1
compound="O=C(CCC(=O)Nc1ccc2ccccc2c1)NCCCNCCCCNCCCNC(=O)CCC(=O)Nc1ccc2ccccc2c1.O=C(O)C(F)(F)F.O=C(O)C(F)(F)F [Compound 20a]" assay_target="P. aeruginosa (ATCC 27853)" observable="Dox/P.a fold change" measurement_qualifier== recorded_number=20
compound="O=C(CCC(=O)Nc1cccc2ccccc12)NCCCNCCCCCCCCNCCCNC(=O)CCC(=O)Nc1cccc2ccccc12.O=C(O)C(F)(F)F.O=C(O)C(F)(F)F [Compound 18d]" assay_target="P. aeruginosa (ATCC 27853)" observable="Dox/P.a fold change" measurement_qualifier== recorded_number=1
compound="O=C(CCC(=O)Nc1ccc2ccccc2c1)NCCCNCCCCCCCCCCNCCCNC(=O)CCC(=O)Nc1ccc2ccccc2c1.O=C(O)C(F)(F)F.O=C(O)C(F)(F)F [Compound 20e]" assay_target="P. aeruginosa (ATCC 27853)" observable="Dox/P.a fold change" measurement_qualifier== recorded_number=5
compound="O=C(CCC(=O)Nc1ccc2ccccc2c1)NCCCNCCCCCCCCCCCCNCCCNC(=O)CCC(=O)Nc1ccc2ccccc2c1.O=C(O)C(F)(F)F.O=C(O)C(F)(F)F [Compound 20f]" assay_target="P. aeruginosa (ATCC 27853)" observable="Dox/P.a fold change" measurement_qualifier=> recorded_number=8
compound="O=C(NCCCNCCCCCCCNCCCNC(=O)c1ccc2ccccc2c1)c1ccc2ccccc2c1.O=C(O)C(F)(F)F.O=C(O)C(F)(F)F [Compound 19c]" assay_target="P. aeruginosa (ATCC 27853)" observable="Dox/P.a fold change" measurement_qualifier== recorded_number=8
compound="O=C(NCCCNCCCCCCCCCCCCNCCCNC(=O)c1cccc2ccccc12)c1cccc2ccccc12.O=C(O)C(F)(F)F.O=C(O)C(F)(F)F [Compound 17f]" assay_target="P. aeruginosa (ATCC 27853)" observable="Dox/P.a fold change" measurement_qualifier== recorded_number=1
compound="O=C(CCC(=O)Nc1cccc2ccccc12)NCCCNCCCCCCCCCCNCCCNC(=O)CCC(=O)Nc1cccc2ccccc12.O=C(O)C(F)(F)F.O=C(O)C(F)(F)F [Compound 18e]" assay_target="P. aeruginosa (ATCC 27853)" observable="Dox/P.a fold change" measurement_qualifier== recorded_number=2.5
compound="O=C(CCC(=O)Nc1ccc(-c2ccccc2)cc1)NCCCNCCCCCCCCCCNCCCNC(=O)CCC(=O)Nc1ccc(-c2ccccc2)cc1.O=C(O)C(F)(F)F.O=C(O)C(F)(F)F [Compound 21e]" assay_target="P. aeruginosa (ATCC 27853)" observable="Dox/P.a fold change" measurement_qualifier== recorded_number=1

---

Assay: Cytotoxicity assay
Format: cell-based, human
Settings: human, HEK293 human embryonic kidney cells, concentration at 50% cytotoxicity on HEK293 cells; mean (n = 2)
Method: Cytotoxicity assays were conducted using the protocols previously reported.
pIC50: −log10 of the molar value.
Consider the following molecules and their measured pIC50 readings.
Observable: pIC50

molecule="O=C(CCC(=O)Nc1ccc2ccccc2c1)NCCCNCCCCCCCCCCNCCCNC(=O)CCC(=O)Nc1ccc2ccccc2c1.O=C(O)C(F)(F)F.O=C(O)C(F)(F)F [Compound 20e]" observable=pIC50 result="< 4.48"
molecule="O=C(CCC(=O)Nc1ccc2ccccc2c1)NCCCNCCCCCCCCNCCCNC(=O)CCC(=O)Nc1ccc2ccccc2c1.O=C(O)C(F)(F)F.O=C(O)C(F)(F)F [Compound 20d]" observable=pIC50 result="< 4.47"
molecule="O=C(NCCCNCCCCCCCNCCCNC(=O)c1cccc2ccccc12)c1cccc2ccccc12.O=C(O)C(F)(F)F.O=C(O)C(F)(F)F [Compound 17c]" observable=pIC50 result="< 4.39"
molecule="O=C(CCC(=O)Nc1ccc(-c2ccccc2)cc1)NCCCNCCCCNCCCNC(=O)CCC(=O)Nc1ccc(-c2ccccc2)cc1.O=C(O)C(F)(F)F.O=C(O)C(F)(F)F [Compound 21a]" observable=pIC50 result="< 4.46"
molecule="O=C(CCC(=O)Nc1cccc2ccccc12)NCCCNCCCCCCNCCCNC(=O)CCC(=O)Nc1cccc2ccccc12.O=C(O)C(F)(F)F.O=C(O)C(F)(F)F [Compound 18b]" observable=pIC50 result="< 4.45"
molecule="O=C(CCC(=O)Nc1cccc2ccccc12)NCCCNCCCCCCCCCCNCCCNC(=O)CCC(=O)Nc1cccc2ccccc12.O=C(O)C(F)(F)F.O=C(O)C(F)(F)F [Compound 18e]" observable=pIC50 result="< 4.48"
molecule="CC/C(=C(\\c1ccccc1)c1ccc(OCCN(C)C)cc1)c1ccccc1 [tamoxifen, reference compound]" observable=pIC50 result=4.62
molecule="O=C(NCCCNCCCCCCCCCCNCCCNC(=O)c1cccc2ccccc12)c1cccc2ccccc12.O=C(O)C(F)(F)F.O=C(O)C(F)(F)F [Compound 17e]" observable=pIC50 result=4.63
molecule="O=C(NCCCNCCCCCCCNCCCNC(=O)c1ccc2ccccc2c1)c1ccc2ccccc2c1.O=C(O)C(F)(F)F.O=C(O)C(F)(F)F [Compound 19c]" observable=pIC50 result=4.69
molecule="O=C(CCC(=O)Nc1cccc2ccccc12)NCCCNCCCCCCCCNCCCNC(=O)CCC(=O)Nc1cccc2ccccc12.O=C(O)C(F)(F)F.O=C(O)C(F)(F)F [Compound 18d]" observable=pIC50 result="< 4.47"
molecule="O=C(NCCCNCCCCCCCCNCCCNC(=O)c1ccc2ccccc2c1)c1ccc2ccccc2c1.O=C(O)C(F)(F)F.O=C(O)C(F)(F)F [Compound 19d]" observable=pIC50 result="< 4.39"
molecule="O=C(NCCCNCCCCCCNCCCNC(=O)c1cccc2ccccc12)c1cccc2ccccc12.O=C(O)C(F)(F)F.O=C(O)C(F)(F)F [Compound 17b]" observable=pIC50 result="< 4.38"
molecule="O=C(CCC(=O)Nc1ccc2ccccc2c1)NCCCNCCCCNCCCNC(=O)CCC(=O)Nc1ccc2ccccc2c1.O=C(O)C(F)(F)F.O=C(O)C(F)(F)F [Compound 20a]" observable=pIC50 result="< 4.44"
molecule="O=C(CCC(=O)Nc1ccc(-c2ccccc2)cc1)NCCCNCCCCCCCCCCNCCCNC(=O)CCC(=O)Nc1ccc(-c2ccccc2)cc1.O=C(O)C(F)(F)F.O=C(O)C(F)(F)F [Compound 21e]" observable=pIC50 result="< 4.50"
molecule="O=C(CCC(=O)Nc1ccc(-c2ccccc2)cc1)NCCCNCCCCCCCNCCCNC(=O)CCC(=O)Nc1ccc(-c2ccccc2)cc1.O=C(O)C(F)(F)F.O=C(O)C(F)(F)F [Compound 21c]" observable=pIC50 result="< 4.48"
molecule="O=C(CCC(=O)Nc1cccc2ccccc12)NCCCNCCCCCCCCCCCCNCCCNC(=O)CCC(=O)Nc1cccc2ccccc12.O=C(O)C(F)(F)F.O=C(O)C(F)(F)F [Compound 18f]" observable=pIC50 result="< 4.49"
molecule="O=C(NCCCNCCCCCCCCCCNCCCNC(=O)c1ccc2ccccc2c1)c1ccc2ccccc2c1.O=C(O)C(F)(F)F.O=C(O)C(F)(F)F [Compound 19e]" observable=pIC50 result=5.32
